Data origin: patent US10919841B2

- target.system: (h)SERT (Homo sapiens, UniProt P31645)
- Construct: expressed in transfected cells; host or cells: HEK293
- Sequence (P31645 whole entry): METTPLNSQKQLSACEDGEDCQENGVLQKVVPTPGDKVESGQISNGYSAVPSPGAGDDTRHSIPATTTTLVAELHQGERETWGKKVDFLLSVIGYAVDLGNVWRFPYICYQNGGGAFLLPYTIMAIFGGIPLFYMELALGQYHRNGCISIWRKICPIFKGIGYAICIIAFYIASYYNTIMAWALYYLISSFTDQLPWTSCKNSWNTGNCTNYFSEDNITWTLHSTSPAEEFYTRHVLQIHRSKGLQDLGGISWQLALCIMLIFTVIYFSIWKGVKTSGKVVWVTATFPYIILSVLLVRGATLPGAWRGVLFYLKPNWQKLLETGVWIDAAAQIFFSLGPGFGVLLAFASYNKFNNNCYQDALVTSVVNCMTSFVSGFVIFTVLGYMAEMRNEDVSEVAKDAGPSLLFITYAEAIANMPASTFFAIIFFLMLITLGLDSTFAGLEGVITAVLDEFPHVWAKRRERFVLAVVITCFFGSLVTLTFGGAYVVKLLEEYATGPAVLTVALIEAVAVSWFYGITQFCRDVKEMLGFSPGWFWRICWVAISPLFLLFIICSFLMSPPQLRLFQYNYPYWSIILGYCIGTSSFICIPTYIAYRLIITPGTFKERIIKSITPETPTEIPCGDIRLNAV
- assay.comment: block of [3H]serotonin reuptake in HEK-(h)SERT cells
- Type: cell-based
- run.conditions: [3H]5HT; read-out: IC50 for 5HT uptake inhibition
experimental.readout: IC50 (nM)
Express the result in nM but write the number alone.

compound	target.system	IC50 (nM)
C[C@@H](NC(C)(C)C)[C@H](O)c1ccccc1 (racemic) [Compound 7, reference compound]	(h)SERT (Homo sapiens, UniProt P31645)	1240
CC(NC1CCC1)C(=O)c1cccc(Cl)c1 (stereo not drawn) [Compound 2y]	(h)SERT (Homo sapiens, UniProt P31645)	185

IN: For the compound shown here, Cc1ccc(C(=O)C(C)NC(C)(C)C)cc1Cl (stereo not drawn) [Compound 2k] , give the reported IC50.
OUT: 400

---

Form: system ((h)NET (Homo sapiens)), quantity (pKi), values below.
// scale note: pKi = -log10(conc_M); give the bare number

Some molecules with known pKi results, for comparison:
molecule	target.system	pKi
CC(C(=O)c1cccc(Cl)c1)N1CCCCC1 (stereo not shown) [Compound 2ff, 2-Piperidino-3′-chloropropiophenone]	(h)NET (Homo sapiens)	5.32
CCCCCC(NC(C)(C)C)C(=O)c1cccc(Cl)c1 (stereo not shown) [Compound 2r]	(h)NET (Homo sapiens)	5.37
CC(NC1CCC1)C(=O)c1cccc(Cl)c1 (stereo not shown) [Compound 2y]	(h)NET (Homo sapiens)	5.74
CCCC(NC(C)(C)C)C(=O)c1cccc(Cl)c1 (stereo not shown) [Compound 2p]	(h)NET (Homo sapiens)	5.93
CC(C(=O)c1cccc(Cl)c1)N(C)C (stereo not shown) [Compound 2dd]	(h)NET (Homo sapiens)	5.51

IN: Return pKi measured with (h)NET (Homo sapiens) given this molecule: CCCCCCC(NC(C)(C)C)C(=O)c1cccc(Cl)c1 (stereo not shown) [Compound 2s]
Sequence (P23975 whole entry): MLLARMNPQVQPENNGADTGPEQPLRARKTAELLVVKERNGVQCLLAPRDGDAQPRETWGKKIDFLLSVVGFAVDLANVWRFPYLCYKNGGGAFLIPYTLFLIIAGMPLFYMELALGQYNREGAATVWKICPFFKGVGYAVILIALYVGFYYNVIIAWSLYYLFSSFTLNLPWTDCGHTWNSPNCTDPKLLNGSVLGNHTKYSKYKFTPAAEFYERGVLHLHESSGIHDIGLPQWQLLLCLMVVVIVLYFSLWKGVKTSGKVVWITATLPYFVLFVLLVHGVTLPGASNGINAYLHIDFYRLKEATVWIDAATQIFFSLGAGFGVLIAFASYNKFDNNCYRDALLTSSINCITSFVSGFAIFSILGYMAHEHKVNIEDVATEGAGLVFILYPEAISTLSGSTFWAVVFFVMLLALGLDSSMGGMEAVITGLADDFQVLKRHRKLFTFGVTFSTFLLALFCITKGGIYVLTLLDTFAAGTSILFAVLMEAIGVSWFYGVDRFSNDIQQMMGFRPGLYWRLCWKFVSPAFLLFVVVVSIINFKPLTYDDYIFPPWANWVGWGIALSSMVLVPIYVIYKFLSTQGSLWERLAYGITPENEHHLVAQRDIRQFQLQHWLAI
OUT: 5.59

IN: Give the reported pKi for Cc1cc(C(=O)C(C)NC(C)(C)C)ccc1Br (stereo not shown) [Compound 2l] (system: (h)NET (Homo sapiens)).
OUT: 5.34

IN: Query the reported pKi for (h)NET (Homo sapiens); item: CC(NC1CCCC1)C(=O)c1cccc(Cl)c1 (stereo not shown) [Compound 2z]
OUT: 5.24

IN: Give the reported pKi for Cc1ccc(C(=O)C(C)NC(C)(C)C)cc1Cl (stereo not shown) [Compound 2k] (system: (h)NET (Homo sapiens)).
OUT: 5.29

IN: # returns recorded pKi (system: (h)NET (Homo sapiens)) for CCCC(NC(C)(C)C)C(=O)c1ccc(Cl)c(Cl)c1 (stereo not shown) [Compound 2bb]
OUT: 6.28

---

- target.system: (h)NET (Homo sapiens)
- assay.comment: block of [3H]norepinephrine reuptake in HEK-(h)NET cells
- run.conditions: read-out: Uptake, IC50 [3H]NE; mean ± standard error of three independent experiments
experimental.readout: pIC50
Scale for pIC50: -log10 of concentration given in mol/L; no unit attached.

compound	observed.value
CCN(CC)C(C)C(=O)c1cccc(Cl)c1 (stereo not drawn)	5.34

IN: Can you share its pIC50? I mean this compound: Cc1ccc(C(=O)C(C)NC(C)(C)C)cc1Cl (stereo not drawn)
OUT: 6.05

IN: Item CCCCCC(NC(C)(C)C)C(=O)c1cccc(Cl)c1 (stereo not drawn) has what recorded pIC50?
OUT: 5.70

IN: Which pIC50 is listed for Cc1cc(C(=O)C(C)NC(C)(C)C)ccc1Br (stereo not drawn) ?
OUT: 5.79
